So I've got a bunch of variants here, and I need their polymerase ribozyme fitness (log ratio) values.
B1: TPR t1 (parent)
chain: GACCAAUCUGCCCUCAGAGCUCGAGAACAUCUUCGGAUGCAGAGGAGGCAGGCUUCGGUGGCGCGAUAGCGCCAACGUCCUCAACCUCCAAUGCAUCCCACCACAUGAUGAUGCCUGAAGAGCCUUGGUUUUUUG

Variants of: B1
Assay: polymerase ribozyme fitness, log enrichment relative to wild type (log ratio); higher = more active; in vitro selection for triplet polymerase activity
Note: the reply should be a number with no unit written.

Indicate its recorded polymerase ribozyme fitness (log ratio); the variant in question is C31G C62U C114G G127U -6.54

Indicate its recorded polymerase ribozyme fitness (log ratio); the variant in question is C11U U54C G63U C85A -2.46

Indicate its recorded polymerase ribozyme fitness (log ratio); the variant in question is G61A C86G G93C -2.03

Indicate its recorded polymerase ribozyme fitness (log ratio); the variant in question is A16U A24G C115G -6.98

Indicate its recorded polymerase ribozyme fitness (log ratio); the variant in question is C20A A84U A90G C98G U109A A121U -3.83

Indicate its recorded polymerase ribozyme fitness (log ratio); the variant in question is C79U A121C 1.81

Indicate its recorded polymerase ribozyme fitness (log ratio); the variant in question is G36A G71A C94A -5.5

Indicate its recorded polymerase ribozyme fitness (log ratio); the variant in question is A27G G42U A75G -3.6

Indicate its recorded polymerase ribozyme fitness (log ratio); the variant in question is A5U C12U A18G C80U C114U -4.01

Indicate its recorded polymerase ribozyme fitness (log ratio); the variant in question is C82G C85A A111G G113U U130G -4.27

Indicate its recorded polymerase ribozyme fitness (log ratio); the variant in question is A27U G51A A74C A83C -7.03

Indicate its recorded polymerase ribozyme fitness (log ratio); the variant in question is C15U A46G G69C C86G C124U -3.98

Indicate its recorded polymerase ribozyme fitness (log ratio); the variant in question is A46U C86A A118G -0.968

Indicate its recorded polymerase ribozyme fitness (log ratio); the variant in question is C73U C79G A84G U96C -2.54

Indicate its recorded polymerase ribozyme fitness (log ratio); the variant in question is G45A C79A G113U A118G -7.04

Indicate its recorded polymerase ribozyme fitness (log ratio); the variant in question is C4A A6C A46C C49A C70A C72G A84C A119U C123A U126G -6.91

Indicate its recorded polymerase ribozyme fitness (log ratio); the variant in question is C70U A90C U92C C102A G120C U132A -5.71

Indicate its recorded polymerase ribozyme fitness (log ratio); the variant in question is G45A G51A C79A -3.77

Indicate its recorded polymerase ribozyme fitness (log ratio); the variant in question is G10U C15U A91C U125A -3.89

Indicate its recorded polymerase ribozyme fitness (log ratio); the variant in question is A37U A111U -3.3

Indicate its recorded polymerase ribozyme fitness (log ratio); the variant in question is C49U C56A A68G -5.08

Indicate its recorded polymerase ribozyme fitness (log ratio); the variant in question is C3A C85U A90U C114U G127C -2.77

Indicate its recorded polymerase ribozyme fitness (log ratio); the variant in question is U38A G61U -0.881

Indicate its recorded polymerase ribozyme fitness (log ratio); the variant in question is U14A U21A U30G G58C U112C A118C -4.31

Indicate its recorded polymerase ribozyme fitness (log ratio); the variant in question is C79G A84C -2.61

Indicate its recorded polymerase ribozyme fitness (log ratio); the variant in question is C56A G60A C101A -1.49

Indicate its recorded polymerase ribozyme fitness (log ratio); the variant in question is G57C C79U G110A -3.76

Indicate its recorded polymerase ribozyme fitness (log ratio); the variant in question is G69A C102A U112G U132A -5.6

Indicate its recorded polymerase ribozyme fitness (log ratio); the variant in question is U9C C56G G60A C88G -3.64

Indicate its recorded polymerase ribozyme fitness (log ratio); the variant in question is C64A C79U C102A A119G -7.09

Indicate its recorded polymerase ribozyme fitness (log ratio); the variant in question is G45U U96A U132A -2.11

Indicate its recorded polymerase ribozyme fitness (log ratio); the variant in question is C31U G36A G61A U87A U106A -2.2

Indicate its recorded polymerase ribozyme fitness (log ratio); the variant in question is G36U C123U 0.205

Indicate its recorded polymerase ribozyme fitness (log ratio); the variant in question is U14C G48U C72G -2.66

Indicate its recorded polymerase ribozyme fitness (log ratio); the variant in question is A29G U32A U55C -5.1

Indicate its recorded polymerase ribozyme fitness (log ratio); the variant in question is G57C C82G A95G A111U C123U -5.52

Indicate its recorded polymerase ribozyme fitness (log ratio); the variant in question is G44A C86A C89U C115G C123A -2.79

Indicate its recorded polymerase ribozyme fitness (log ratio); the variant in question is C70U C98U -1.16

Indicate its recorded polymerase ribozyme fitness (log ratio); the variant in question is C79U C80U U116C -4.27

Indicate its recorded polymerase ribozyme fitness (log ratio); the variant in question is G17U C20U C49A C73G C115A -1.32

Indicate its recorded polymerase ribozyme fitness (log ratio); the variant in question is C53U G60U C101U A103C -5.14

Indicate its recorded polymerase ribozyme fitness (log ratio); the variant in question is G60C U130A U133A -1.59

Indicate its recorded polymerase ribozyme fitness (log ratio); the variant in question is C12A A18U C76G G77U U96A -4.3

Indicate its recorded polymerase ribozyme fitness (log ratio); the variant in question is C53U C99G A119G -7.41

Indicate its recorded polymerase ribozyme fitness (log ratio); the variant in question is C115A U126C -0.397

Indicate its recorded polymerase ribozyme fitness (log ratio); the variant in question is A2U A6G C12U A24G C56A C97U -3.05
